Assay: Pharmacokinetics in P. falciparum-infected humanized mice
Conditions: NOD-scid IL-2Rγ^null, mouse, whole blood, po, 300 mg/kg
measure.name: Tmax (h)
Give bare numbers, in h.

Entry under review: "Cc1nc2cnccc2n1-c1ccc(C(=O)N2CCC(=C3c4ccc(Cl)cc4CCc4cccnc43)CC2)cc1" . Reported Tmax?
3.3

###

Tested on: P. falciparum 3D7
Assay: SYBR I dye DNA staining assay (Pfizer), P. falciparum 3D7
Settings: Plasmodium falciparum, 3D7, read-out: EC50 3D7
measure.name: EC50 (µM)
One number for each entry, in µM.

compound	EC50, µM
Cc1nc2cnccc2n1-c1ccc(C(=O)N2CCC(=C3c4ccc(Cl)cc4CCc4cccnc43)CC2)cc1 [UK-112,214]	0.55

// switching to the query compound
Item under review: COc1ccc(C(=O)c2cn(C(C)C)c3ncnc(N)c23)cc1NC(=O)Nc1ccc(Cl)cc1Cl [CE-245677] . Reported EC50?
1.1

###

Test: Pharmacokinetics in P. falciparum-infected humanized mice
Details: NOD-scid IL-2Rγ^null, mouse, whole blood, po, 100 mg/kg
measure.name: Cmax (ng/mL)
One number for each entry, in ng/mL.

smiles.code	measure.name	unit.label	reported.result
Cc1nc2cnccc2n1-c1ccc(C(=O)N2CCC(=C3c4ccc(Cl)cc4CCc4cccnc43)CC2)cc1	Cmax	ng/mL	8610

# input for lookup
Report Cmax for "C/C=C/C[C@@H](C)C(=O)[C@H]1C(=O)N[C@@H](C(C)C)C(=O)N(C)CC(=O)N(C)[C@@H](CC(C)C)C(=O)N[C@@H](C(C)C)C(=O)N(C)[C@@H](CC(C)C)C(=O)N[C@@H](C)C(=O)N[C@H](C)C(=O)N(C)[C@@H](CC(C)C)C(=O)N(C)[C@@H](CC(C)C)C(=O)N(C)[C@@H](C(C)C)C(=O)N1C" please.
1010

###

Assay: Pharmacokinetics in P. falciparum-infected humanized mice
Conditions: NOD-scid IL-2Rγ^null, mouse, whole blood, po, 200 mg/kg
measure.name: Cmax
Quick note: unit goes after the number.

Which Cmax is reported for this compound? "C/C=C/C[C@@H](C)C(=O)[C@H]1C(=O)N[C@@H](C(C)C)C(=O)N(C)CC(=O)N(C)[C@@H](CC(C)C)C(=O)N[C@@H](C(C)C)C(=O)N(C)[C@@H](CC(C)C)C(=O)N[C@@H](C)C(=O)N[C@H](C)C(=O)N(C)[C@@H](CC(C)C)C(=O)N(C)[C@@H](CC(C)C)C(=O)N(C)[C@@H](C(C)C)C(=O)N1C"
910 ng/mL

###

Test system: P. falciparum 3D7
Assay: SYBR I dye DNA staining assay (SJCRH), P. falciparum 3D7
Conditions: Plasmodium falciparum, 3D7, 72 h, read-out: EC50 3D7
Starred links: 1 amine or outer side, 2 acyl side, 3 side chain; linkers in the order of their positions; H or OH if unused. Positions of bridges follow the written chain, without caps; N, C: chain ends. Non-standard residues stand in square brackets, D forms with d. Residues, ends and D or L forms follow the SMILES beside them. Chains are numbered I, II in the order given. Actinocin(9to1) = Cc1c2oc3c(C)ccc(C(=O)[*:1])c3nc-2c(C(=O)[*:2])c(N)c1=O; NMeV = CN[C@H](C(=O)O)C(C)C; Sar = CNCC(=O)O
measure.name: EC50 (nM)
Answers are plain numbers, in nM.

Consider the reported EC50 for these compounds:
compound	unit.label	EC50
COc1cccc2c1C(=O)c1c(O)c3c(c(O)c1C2=O)C[C@@](O)(C(=O)CO)C[C@@H]3O[C@H]1C[C@H](N)[C@H](O)[C@H](C)O1	nM	210
CN(CCCCCCCCCCN(C)C(=O)Oc1cccc([N+](C)(C)C)c1)C(=O)Oc1cccc([N+](C)(C)C)c1	nM	510
CN1CCN(CC/C=C2/c3ccccc3Sc3ccc(S(=O)(=O)N(C)C)cc32)CC1	nM	40

Give EC50 for each listed item.
1. O=c1[nH]c2ccccc2n1C1CCN(CCCC(c2ccc(F)cc2)c2ccc(F)cc2)CC1 [Pimozide]
2. Cc1c2oc3c(C)ccc(C(=O)N[C@@H]4C(=O)N[C@H](C(C)C)C(=O)N5CCC[C@H]5C(=O)N(C)CC(=O)N(C)[C@@H](C(C)C)C(=O)O[C@@H]4C)c3nc-2c(C(=O)N[C@@H]2C(=O)N[C@H](C(C)C)C(=O)N3CCC[C@H]3C(=O)N(C)CC(=O)N(C)[C@@H](C(C)C)C(=O)O[C@@H]2C)c(N)c1=O [Dactinomycin] (I: T[dV]P[Sar][NMeV] / II: T[dV]P[Sar][NMeV]; ester I:1-I:C, II:1-II:C; linker I:N-II:N via Actinocin(9to1))
3. CC[C@H](C)C(=O)O[C@H]1C[C@H](O)C=C2C=C[C@H](C)[C@H](CC[C@@H](O)C[C@@H](O)CC(=O)O)[C@H]21
4. CNC(=O)c1cc(Oc2ccc(NC(=O)Nc3ccc(Cl)c(C(F)(F)F)c3)cc2)ccn1
5. Cc1ccnc(NS(=O)(=O)c2ccc(N)cc2)n1
6. Cc1cc(N)c2ccccc2[n+]1CCCCCCCCCC[n+]1c(C)cc(N)c2ccccc21

1: 700; 2: 0.9; 3: 750; 4: 2710; 5: 10; 6: 60
